Tested on: p-IKKa levels in L363 (NIK translocated multiple myeloma) cells
Experiment: Effect of compounds on p-IKKa levels in L363 (NIK translocated multiple myeloma) cells (AlphaLISA SureFire Ultra p-IKKa Ser176/180)
Assay type: cell-based, human
Conditions: Homo sapiens, L-363, p-IKKa levels in L363 cells; average if tested more than once; read-out: Assay 2 IC50
pIC50: −log10 of the molar value.
reported.metric: pIC50

Look up pIC50 of CN1CC[C@@](O)(c2cccc(-c3nc(-c4ccnc(Nc5cnn(C6CCC6)c5)n4)cs3)c2)C1=O [Example 73] and report it.
6.30 to 7.00

Look up pIC50 of C[C@@H](Nc1nccc(-c2csc(-c3cccc([C@]4(O)CCN(C)C4=O)c3)n2)n1)c1cn[nH]c1 (single isomer, unassigned) [Example 139] and report it.
> 7.00

Look up pIC50 of CNC(=O)c1cc(Nc2nccc(-c3csc(-c4cccc([C@]5(O)CCN(C)C5=O)c4)n3)n2)n(CC(C)C)n1 [Example 13] and report it.
6.30 to 7.00

Now let's try a different one.
Look up pIC50 of Cc1ccc(CNc2nccc(-c3csc(-c4cccc([C@]5(O)CCN(C)C5=O)c4)n3)n2)cn1 [Example 204] and report it.
< 6.30
